Every entry's value here was drawn from patent US9650390B2.

- Test system: human ovarian cancer SK-OV-3
- test conditions: D22; 24 mg/kg, D0-4 IV; SK-OV-3 xenograft in nude mice
measurement name: Tumor volume (mm^3) (D22)
Quick reminder: number only, in mm^3, skip the unit.

Given CCN(CC)CC[C@H](F)C(=O)O[C@@H](C(=O)O[C@H]1C[C@@]2(O)[C@@H](OC(=O)c3ccccc3)[C@@H]3[C@]4(OC(C)=O)CO[C@@H]4C[C@H](O)[C@@]3(C)C(=O)[C@H](OC(C)=O)C(=C1C)C2(C)C)[C@@H](NC(=O)c1ccccc1)c1ccccc1.O=C(O)/C=C/C(=O)O , respond with its Tumor volume (mm^3) (D22).
55.7

Given CC(=O)O[C@H]1C(=O)[C@@]2(C)[C@H]([C@H](OC(=O)c3ccccc3)[C@]3(O)C[C@H](OC(=O)[C@H](OC(=O)C(F)CCN(C)C)[C@@H](NC(=O)c4ccccc4)c4ccccc4)C(C)=C1C3(C)C)[C@]1(OC(C)=O)CO[C@@H]1C[C@@H]2O.CS(=O)(=O)O (stereo partly drawn) , respond with its Tumor volume (mm^3) (D22).
50.6

Given CC(=O)O[C@H]1C(=O)[C@@]2(C)[C@H]([C@H](OC(=O)c3ccccc3)[C@]3(O)C[C@H](OC(=O)[C@H](OC(=O)[C@@H](F)CCN(C)C)[C@@H](NC(=O)c4ccccc4)c4ccccc4)C(C)=C1C3(C)C)[C@]1(OC(C)=O)CO[C@@H]1C[C@@H]2O.CS(=O)(=O)O , respond with its Tumor volume (mm^3) (D22).
51.2

* * *

- test: In vitro dissociation in blood plasma of rabbit
- Assay type: in vitro ADME, New Zealand white rabbits
- test conditions: fresh New Zealand white rabbit plasma, 37° C., 5 min
measurement name: Sampling time/Dissociation percent (%) 5 min
Quick reminder: number only, in %, skip the unit.

Given CC(=O)O[C@H]1C(=O)[C@@]2(C)[C@H]([C@H](OC(=O)c3ccccc3)[C@]3(O)C[C@H](OC(=O)[C@H](OC(=O)[C@@H](F)CCN(C)C)[C@@H](NC(=O)c4ccccc4)c4ccccc4)C(C)=C1C3(C)C)[C@]1(OC(C)=O)CO[C@@H]1C[C@@H]2O.Cl [Compound 02] , respond with its Sampling time/Dissociation percent (%) 5 min.
97.5

Given CC(=O)O[C@@]12CO[C@@H]1C[C@H](O)[C@@]1(C)C(=O)[C@H](O)C3=C(C)[C@@H](OC(=O)[C@H](OC(=O)[C@@H](F)CCN(C)C)[C@@H](NC(=O)OC(C)(C)C)c4ccccc4)C[C@@](O)([C@@H](OC(=O)c4ccccc4)[C@H]21)C3(C)C.CS(=O)(=O)O [Compound C5] , respond with its Sampling time/Dissociation percent (%) 5 min.
93.1

Given COC1C(=O)C2(C)C(OC)CC3OCC3(OC(C)=O)C2C(OC(=O)c2ccccc2)C2(O)CC(OC(=O)C(OC(=O)C(CCN)C(F)F)C(NC(=O)OC(C)(C)C)c3ccccc3)C(C)=C1C2(C)C.O=S(=O)([O-])O.[Na+] (stereo not shown) [Compound 10] , respond with its Sampling time/Dissociation percent (%) 5 min.
63.2

Given CCN(C)C(C)C[C@H](C(=O)O[C@@H](C(=O)O[C@H]1C[C@@]2(O)[C@@H](OC(=O)c3ccccc3)[C@@H]3[C@]4(OC(C)=O)CO[C@@H]4C[C@H](O)[C@@]3(C)C(=O)[C@H](O)C(=C1C)C2(C)C)[C@@H](NC(=O)OC(C)(C)C)c1ccccc1)C(C)(F)F.CS(=O)(=O)O (stereo partly shown) [Compound C12] , respond with its Sampling time/Dissociation percent (%) 5 min.
72.1
